B1: EFHC1 (parent)
chain: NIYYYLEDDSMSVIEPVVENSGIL

variants of: B1; assay: protein stability index of a GFP-peptide fusion (GPS, HEK-293T) (PSI 1-6); higher = more stable; details: c terminus: a fixed tail appended;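 further: lentivirally expressed fusions sorted by FACS into six bins by GFP to DsRed ratio, PSI derived from sequencing read proportions per bin multiplied by bin number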
readout.label: protein stability index
Answers are plain numbers.

Y3N: 3.38
D8C: 2.56
D9L: 1.68
V18C: 1.82

# map each variant to its protein stability index
1. V13K
2. S21G
3. E7H
4. I14N
5. I23G
6. Y4V
7. V18W

1. 2.08
2. 2.23
3. 1.3
4. 2.62
5. 2.14
6. 1.24
7. 1.13

# map each variant to its protein stability index
1. D9T
2. I14R
3. V17D
4. S12A
5. S21C
6. V18D
7. E15T
8. E7A

1.37
2.78
2.6
1.98
2.57
2.99
1.42
1.4

# map each variant to its protein stability index
1. E19H
2. I2Y
3. S10P
4. D8W
5. G22T
6. L6A

[2.01, 2.07, 2.03, 4.45, 1.42, 3.01]

# map each variant to its protein stability index
1. I2S
2. V17F

[3.4, 2.88]

# map each variant to its protein stability index
1. E15C
2. S10T
3. P16M
4. L6K
5. D8Q
6. L6S
7. L6T

3.27
1.93
2.57
2.68
1.91
2.5
2.71

# map each variant to its protein stability index
1. D9P
2. E15W
3. L24W
4. D9A
5. E7M

[2.02, 2.39, 1.4, 2.09, 2.09]

# map each variant to its protein stability index
1. S12K
2. D8M
3. N20G
4. I2M
5. Y3S
6. S12H
7. V13W

1.85
2.71
2.77
2.96
3.2
2.53
2.11
